Give measured MIC for each item. Keep answers brief.
Report the value in µM with no unit label.

Case Cc1cccc(NC(=O)c2c(O)ccc3ccccc23)c1 [Compound 3b] , Mycobacterium marinum CAMP 5644, MIC recorded as 231

Case Cc1ccccc1NC(=O)c1c(O)ccc2ccccc12 [Compound 3a] , Mycobacterium marinum CAMP 5644, MIC recorded as 231

Case O=C(Nc1ccccc1Cl)c1c(O)ccc2ccccc12 [Compound 5a] , Mycobacterium marinum CAMP 5644, MIC recorded as 107

Case O=C(Nc1ccccc1C(F)(F)F)c1c(O)ccc2ccccc12 [Compound 7a] , Mycobacterium marinum CAMP 5644, MIC recorded as 96.6

Case O=C(Nc1ccc(Br)cc1)c1c(O)ccc2ccccc12 [Compound 6c] , Mycobacterium marinum CAMP 5644, MIC recorded as 187

Case O=C(Nc1ccccc1)c1c(O)ccc2ccccc12 [Compound 1] , Mycobacterium marinum CAMP 5644, MIC recorded as 60.7

* * *

- experimental protocol: Lipophilicity determination by RP-HPLC (capacity factor log k)
- Type: physicochemical
- test parameters: isocratic, MeOH 60%/H2O 40%, C18
Binarize log k at 0.5; below is criterion met, at or above is criterion not met.

(Q) Determine if NNC(=O)c1ccncc1 [INH, isoniazid, reference compound] shows log k strictly lower than 0.5.
(A) criterion met

(Q) Determine if "Cc1cccc(NC(=O)c2c(O)ccc3ccccc23)c1" shows log k strictly lower than 0.5.
(A) criterion met

(Q) Determine if CN(C)C(=O)Nc1ccc(Cl)c(Cl)c1 [DCMU, 3-(3,4-dichlorophenyl)-1,1-dimethylurea, reference compound] shows log k strictly lower than 0.5.
(A) criterion not met

(Q) Determine if "O=C(Nc1ccccc1Cl)c1c(O)ccc2ccccc12" shows log k strictly lower than 0.5.
(A) criterion not met

* * *

assay endpoint: MIC (µM)
Report the value in µM with no unit label.

Case "O=C(Nc1ccccc1C(F)(F)F)c1c(O)ccc2ccccc12" , Mycobacterium avium subsp. paratuberculosis (CIT03), MIC recorded as 377

Case "O=C(Nc1cccc(C(F)(F)F)c1)c1c(O)ccc2ccccc12" , Mycobacterium avium subsp. paratuberculosis (CIT03), MIC recorded as 731

Case "O=C(Nc1ccccc1)c1c(O)ccc2ccccc12" , Mycobacterium avium subsp. paratuberculosis (CIT03), MIC recorded as 950

Case "O=C(Nc1cccc(Cl)c1)c1c(O)ccc2ccccc12" , Mycobacterium avium subsp. paratuberculosis (CIT03), MIC recorded as 840

Case "COc1cccc(NC(=O)c2c(O)ccc3ccccc23)c1" , Mycobacterium avium subsp. paratuberculosis (CIT03), MIC recorded as 426

Case "COc1ccc(NC(=O)c2c(O)ccc3ccccc23)cc1" , Mycobacterium avium subsp. paratuberculosis (CIT03), MIC recorded as 852

Case "Cc1ccccc1NC(=O)c1c(O)ccc2ccccc12" , Mycobacterium avium subsp. paratuberculosis (CIT03), MIC recorded as 451

Case "O=C(Nc1ccccc1Br)c1c(O)ccc2ccccc12" , Mycobacterium avium subsp. paratuberculosis (CIT03), MIC recorded as 731

Case "COc1ccccc1NC(=O)c1c(O)ccc2ccccc12" , Mycobacterium avium subsp. paratuberculosis (CIT03), MIC recorded as 852

Case "O=C(Nc1ccc(Cl)cc1)c1c(O)ccc2ccccc12" , Mycobacterium avium subsp. paratuberculosis (CIT03), MIC recorded as 420

Case "Cc1ccc(NC(=O)c2c(O)ccc3ccccc23)cc1" , Mycobacterium avium subsp. paratuberculosis (CIT03), MIC recorded as 451

Case "O=C(Nc1ccc(C(F)(F)F)cc1)c1c(O)ccc2ccccc12" , Mycobacterium avium subsp. paratuberculosis (CIT03), MIC recorded as 731

Case "O=C(Nc1ccccc1[N+](=O)[O-])c1c(O)ccc2ccccc12" , Mycobacterium avium subsp. paratuberculosis (CIT03), MIC recorded as 195

Case "O=C(Nc1ccccc1F)c1c(O)ccc2ccccc12" , Mycobacterium avium subsp. paratuberculosis (CIT03), MIC recorded as 203

* * *

Assay read-out MIC; system under study: Mycobacterium marinum CAMP 5644.

Lab note: measured MIC of "O=C(Nc1ccc(C(F)(F)F)cc1)c1c(O)ccc2ccccc12" was > 748 µM

Lab note: measured MIC of "O=C(Nc1ccc(F)cc1)c1c(O)ccc2ccccc12" was > 910 µM

Lab note: measured MIC of "O=C(Nc1ccc([N+](=O)[O-])cc1)c1c(O)ccc2ccccc12" was ~52 µM

Lab note: measured MIC of "O=C(Nc1cccc(Br)c1)c1c(O)ccc2ccccc12" was > 748 µM

Lab note: measured MIC of "O=C(Nc1cccc(Cl)c1)c1c(O)ccc2ccccc12" was > 860 µM

Lab note: measured MIC of "O=C(Nc1cccc(C(F)(F)F)c1)c1c(O)ccc2ccccc12" was > 748 µM

Lab note: measured MIC of "O=C(Nc1ccccc1Br)c1c(O)ccc2ccccc12" was > 748 µM

* * *

Give measured MIC for each item. Keep answers brief.

Case "O=C(Nc1ccc(F)cc1)c1c(O)ccc2ccccc12" , Mycobacterium avium subsp. paratuberculosis (CIT03), MIC recorded as > 889 µM

Case NNC(=O)c1ccncc1 [INH, isoniazid, reference compound] , Mycobacterium avium subsp. paratuberculosis (CIT03), MIC recorded as > 1820 µM

Case "O=C(Nc1cccc(F)c1)c1c(O)ccc2ccccc12" , Mycobacterium avium subsp. paratuberculosis (CIT03), MIC recorded as > 889 µM

Origin of measurements: paper PMC6270026
